This section presents compounds with their documented MIC values.
tested on: Escherichia coli JT39; test: MIC in a standard test; type: cell-based; conditions: standard test; Escherichia coli JT39; read-out: MIC
Value expressed in µg/mL; do not type the unit.

COCCSC1=C(C(=O)O)N2C(=O)C[C@H]2C1 [Example 32] :: 6.2

Test system Escherichia coli JT39; read-out MIC; what value for NCCSC1=C(C(=O)O)N2C(=O)CC2C1 (centres unmarked) [Example 15] ?
1.6

Could you share what MIC was measured for CCSC1=C(C(=O)OCc2ccc([N+](=O)[O-])cc2)N2C(=O)[C@@H](CCN=[N+]=[N-])[C@H]2C1 (relative stereo) [Example 82] , tested on Escherichia coli JT39?
12.5

Lookup: MIC / Escherichia coli JT39 / CCSC1=C(C(=O)OC2OC(=O)c3ccccc32)N2C(=O)[C@@H](CC)[C@H]2C1 (some centres unmarked) [Example 75]
50

Under Escherichia coli JT39: MIC value of CCSC1=C(C(=O)O)N2C(=O)[C@@H](C)[C@H]2C1 (relative stereo) [Example 79] ?
6.2

Form field: MIC recorded for O=C(O)C1=C(SCc2ccccc2)C[C@@H]2CC(=O)N12 [Example 47] with Escherichia coli JT39 (enter value)
50

Identify the measured MIC of COC(=O)CCSC1=C(C(=O)O)N2C(=O)C[C@H]2C1 [Example 23] for Escherichia coli JT39.
6.2
